Sourced from ChEMBL document CHEMBL2218924

molecular target: LIM domain kinase 1 (Homo sapiens); conditions: at 1 µM
Classify: rule met when residual activity is strictly less than 90%; rule not met when residual activity is not.

Use these answered entries as a reference point.
> print(dat)
                         structure.notation    class.name
1       CCCCc1c(-c2ccc(OC)cc2)[nH]c2nccnc12      rule met
2  CC(C)(C)c1nc2c3ccc(F)cc3c3c(=O)[nH]ccc3c2[nH]1  rule not met
3  c1ccc(-c2cnc(Nc3ccc(OCCN4CCCC4)cc3)s2)cc1      rule met
4    O=C1NC(=O)c2c1c1c3ccccc3[nH]c1n1cncc21      rule met

Q) Check if residual activity falls below 90% for COc1cc2c(cc1OC)-c1n[nH]c(Nc3cccc(F)c3)c1C2 .
A) rule met

Q) Quick check: residual activity of Nc1nccc(-c2c(-c3ccc(F)cc3)ncn2C2CCNCC2)n1 under 90%?
A) rule met

Q) Hi there! Is residual activity for COc1cc2nccc(Oc3ccc(NC(=O)Nc4cc(C)on4)c(Cl)c3)c2cc1OC below 90%, do you know?
A) rule met
